- Tested on: CYP3A4
- Test protocol: CYP inhibition / time-dependent inhibition, CYP3A4_Midazolam
- Type: in vitro ADME, human
- Conditions: Table 11

- Compound: "O=C(Cc1cncc(-n2cc(Cl)c3cc(Cl)cc(Cl)c32)c1)N[C@@H]1COC[C@H]1O"
  TDI related reactive metabolite: "Yes"
- Compound: "O=C(Cc1cc(-n2cc(Cl)c3cc(Cl)cc(Cl)c32)ccc1F)NCCO"
  TDI related reactive metabolite: "Yes"
- Compound: "O=C(Cc1nccc(-n2cc(Cl)c3cc(Cl)cc(Cl)c32)n1)NC1COCC1O (stereo not shown)"
  TDI related reactive metabolite: "No"
- Compound: "Cc1cn(-c2ccc(F)c(CC(=O)NCC(C)(C)O)c2)c2c(Cl)cc(Cl)cc12"
  TDI related reactive metabolite: "Yes"

---

- System under test: CYP1A2 (Homo sapiens, UniProt P05177)
- Construct: pre-incubation of the human liver microsomes with the test compound; tissue Corning; host or cells: human liver microsomes
- Sequence (P05177 1-516): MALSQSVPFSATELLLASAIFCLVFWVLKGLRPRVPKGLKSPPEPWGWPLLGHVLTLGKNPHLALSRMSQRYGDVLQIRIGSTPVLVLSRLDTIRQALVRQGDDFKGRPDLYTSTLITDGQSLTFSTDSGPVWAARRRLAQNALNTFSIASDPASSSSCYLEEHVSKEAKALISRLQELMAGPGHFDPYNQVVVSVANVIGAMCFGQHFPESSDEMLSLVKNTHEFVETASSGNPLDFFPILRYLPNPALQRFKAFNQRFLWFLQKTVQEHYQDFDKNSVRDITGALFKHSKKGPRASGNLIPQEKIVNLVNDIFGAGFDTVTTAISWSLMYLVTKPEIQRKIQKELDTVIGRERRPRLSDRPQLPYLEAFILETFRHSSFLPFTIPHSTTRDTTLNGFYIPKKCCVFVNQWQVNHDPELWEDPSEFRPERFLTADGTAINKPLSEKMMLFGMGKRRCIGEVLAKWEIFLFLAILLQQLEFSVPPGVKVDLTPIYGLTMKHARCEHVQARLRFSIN
- Test protocol: CYP inhibition / time-dependent inhibition, CYP1A2_Phenacetin
- Format: in vitro ADME
- Conditions: role: inhibitor; (+)NADPH pre-incubation; substrate phenacetin; read-out: IC50 (+)NADPH CYP1A2_Phenacetin
Measurement kind: IC50

For O=C(Cc1cncc(-n2cc(Cl)c3cc(Cl)cc(Cl)c32)c1)N[C@@H]1COC[C@H]1O [Compound 661] , what is its reported IC50? > 50 µM

---

- System under test: CYP2D6 (Homo sapiens, UniProt P10635)
- Construct: pre-incubation of the human liver microsomes with the test compound; tissue Corning; host or cells: human liver microsomes
- Sequence (P10635 whole entry): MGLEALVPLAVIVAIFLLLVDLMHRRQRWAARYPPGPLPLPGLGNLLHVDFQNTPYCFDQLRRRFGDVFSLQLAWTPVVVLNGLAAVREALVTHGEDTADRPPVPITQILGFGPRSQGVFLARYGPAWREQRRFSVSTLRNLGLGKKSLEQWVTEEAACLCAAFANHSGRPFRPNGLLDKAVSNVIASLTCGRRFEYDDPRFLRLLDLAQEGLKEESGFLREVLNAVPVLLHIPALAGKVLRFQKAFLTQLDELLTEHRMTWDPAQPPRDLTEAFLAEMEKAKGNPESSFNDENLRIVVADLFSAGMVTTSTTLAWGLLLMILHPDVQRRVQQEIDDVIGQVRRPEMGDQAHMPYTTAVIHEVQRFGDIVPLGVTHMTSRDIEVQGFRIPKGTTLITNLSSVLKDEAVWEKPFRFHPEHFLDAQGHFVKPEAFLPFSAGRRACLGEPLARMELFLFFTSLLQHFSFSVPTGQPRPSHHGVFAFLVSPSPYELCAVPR
- Test protocol: CYP inhibition / time-dependent inhibition, CYP2D6_Dextromethorphan
- Format: in vitro ADME
- Conditions: role: inhibitor; (+)NADPH pre-incubation; substrate dextromethorphan; read-out: IC50 (+)NADPH CYP2D6_Dextromethorphan
Measurement kind: pIC50
To interpret pIC50, take it as minus log10 of a concentration measured in moles per litre.

For O=C(Cc1cncc(-n2cc(Cl)c3cc(Cl)cc(Cl)c32)c1)N[C@@H]1COC[C@H]1O [Compound 661] , what is its reported pIC50? 4.50

---

- System under test: 5-HT1A (Homo sapiens)
- Sequence (P08908 whole entry, species assumed): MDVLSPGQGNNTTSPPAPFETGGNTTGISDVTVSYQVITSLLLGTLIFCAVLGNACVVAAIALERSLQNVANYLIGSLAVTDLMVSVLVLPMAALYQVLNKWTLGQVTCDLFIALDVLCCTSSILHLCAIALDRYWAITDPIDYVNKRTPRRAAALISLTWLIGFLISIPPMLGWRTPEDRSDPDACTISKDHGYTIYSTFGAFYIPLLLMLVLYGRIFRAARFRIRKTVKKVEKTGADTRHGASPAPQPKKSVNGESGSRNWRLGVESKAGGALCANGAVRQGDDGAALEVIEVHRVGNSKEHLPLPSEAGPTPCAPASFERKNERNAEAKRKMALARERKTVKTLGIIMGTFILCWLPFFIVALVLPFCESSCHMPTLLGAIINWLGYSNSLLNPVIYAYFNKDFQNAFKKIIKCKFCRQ
- Test protocol: Functional screening panel, 5-HT1A
- Conditions: antagonist; read-out: IC/EC50 5-HT1A-antagonist
Measurement kind: IC50 (µM)
Express it in µM; write the number only.

For O=C(Cc1nccc(-n2cc(Cl)c3cc(Cl)cc(Cl)c32)n1)NC1COCC1O (stereo not shown) , what is its reported IC50? 30.4
